Target: T1, dimeric hIL-4R-hFc (human, UniProt P24394 26-232)
T1 construct: also called hIL-4R-Fc; not shown: human Fc (hFc)
T1 sequence: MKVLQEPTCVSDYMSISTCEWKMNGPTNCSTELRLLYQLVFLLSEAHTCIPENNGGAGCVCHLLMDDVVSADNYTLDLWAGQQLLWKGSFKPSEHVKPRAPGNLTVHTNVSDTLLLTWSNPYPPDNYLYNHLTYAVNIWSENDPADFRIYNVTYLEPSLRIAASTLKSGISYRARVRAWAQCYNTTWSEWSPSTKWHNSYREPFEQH
Experiment: SPR (BIAcore 2000); antibody captured, dimeric hIL-4R-hFc injected
Reported T1/2 dimeric values for a set of binders
The answer is to be given in h; state only the numeric part.

Binder	T1/2 dimeric (h)
VAB 16G1-1 (antibody, V domains shown, 403/405; 407/409 without saying which was assayed; Apparently tested with mouse constant region (anti-mouse IgG capture/detection)) VH: EVKLAESGGGLVQPGGSLRLSCAASGFTFSSHWMNWVRQAPGKGLEWVANIKQDGSDKYYVDSVKGRFTISRDNAKNSLYLQLNSLIAEDTAVYYCARDRGVRPPRGAFDIWGQGTMVTVSS VL: DIQMTQSPSSVSASVGDRVTITCRASQGISSWLAWYQQKPGKAPKLLIYAASSFQSGVPSRFSGSGSGTDFTLTISSLQPEDFATYFCQQANSFPLTFGGGTTVEIK	7.3
VAK12B11-9 (antibody, V domains shown, Apparently tested with mouse constant region (anti-mouse IgG capture/detection)) VH: QVQLVESGGGVVQPGRSLRLSCAASGFTFSSYAMYWVRQAPGKGLEWVAVISYDGSNKYYTDSVKGRFTVSRDNSKNTLFLQMNSLRAEDTALYYCAKESSSYGLDVWGQGTTVTVSS VL: DIQMTQSPSTLSASVGDRVAITCRASQSISNWLAWYQQKPGKAPKLLISKASSLKSGVPSRFSGSGSGTEFTLTISSLQPDDFAAYYCQQYNSYSYTFGQGTKLEIK	12

Query: Write down T1/2 dimeric measured for item VAK10G12-5 (antibody, V domains shown, Apparently tested with mouse constant region (anti-mouse IgG capture/detection)) VH: QVQLVESGGGVVQPGGSLRLSCAASGFTFSSYGMHWVRQAPGRGLEWVAVLSYDGSKEFYADSVKVRFTVSRDNSKNTLYLQMSSLRVEDTAIYFCAKEGRTGNWFDPWGQGTLVAVSS VL: DIQMTQSPSSLSASVGDRVTITCRASQAINNFLAWFQQKPGKTPKSLIFATSSLQSGVPSRFSGSESGTDFTLTISSLQPEDFATYYCQQYNSHPWTFGQGTKVEIK
Result: 46

Query: Write down T1/2 dimeric measured for item VAB 11G8-1 (antibody, V domains shown, Apparently tested with mouse constant region (anti-mouse IgG capture/detection)) VH: QVQLVQSGAEVKKPGASVKVSCKASGYTFTNYGISWVRQAPGQGLEWMGWISVYNGHTNYAQKLQGRVTMTTDTSTSTAYMELRSLRSDDTAVYYCARGSGYDFDSWGQGTLVTVSS VL: AIQMTQSSSSLSASVGDRVTITCRASQAIRNALGWYQQKPGKAPKVLIYAASSLQSGIPSRFSGSGSGTDFTLTISSLQPEDFATYYCLQDYDYPYTFGQGTKLEIK
Result: 8.7

Query: Write down T1/2 dimeric measured for item VAK9C6-11 (antibody, V domains shown, Apparently tested with mouse constant region (anti-mouse IgG capture/detection)) VH: QVQLVESGGGVVQPGRSLRLSCAASGFTFSSYGMHWVRQAPGKGLEWVTVISYDGSIKYYVDSVKGRFTISRDNSKNTLFLQMNSLRVEDTAVYYCAKEGRKYGMDVWGQGTTVTVSS VL: DIQMTQSPSTLSASVGDRVTITCRASQIISSLLVWYQQKPGKAPKLLIYKASSLESGVPSRFSGSGSGTEFTLTISSLQPDDFATYYCQQYHSYMYTFGQGTKLEIK
Result: 7
